- Tested on: Aβ42 production in H4 cells stably transfected with APP751 containing the Swedish mutation (H4 APP751 SWE clone 8.20)
- Experiment Description: Cellular assay for inhibition of Aβ1-42 production (H4 APP751 SWE clone 8.20)
- Format: cell-based
- Reported Conditions: H4 APP751 SWE clone 8.20 cells, 19 h incubation; Table 5A, 6-alkyl and 6-substituted phenyl thiazine examples
Metric: pIC50
Numbers only, as −log10 of the molar value.

Solved entries:
INSERT INTO results (molecule, metric, value_measured) VALUES
  ('COc1ccc([C@@H]2C[C@@H](c3cc(-c4cncnc4)c(F)cc3F)N=C(N)S2)cc1OC (racemic) [Example 1]', 'pIC50', 5.96),
  ('COc1ccc([C@@H]2C[C@@H](c3cccc(-c4cccc(C#N)c4)c3)N=C(N)S2)cc1OC (racemic) [Example 31]', 'pIC50', 5.05),
  ('NC1=N[C@H](c2cccc(-c3cncnc3)c2)C[C@@H](c2ccccc2)S1 (racemic) [Example 2]', 'pIC50', 5.39);

Return pIC50 (reported value) for this molecule: COc1ccc([C@@H]2C[C@@H](c3cc(-c4cncnc4)ccc3F)N=C(N)S2)cc1OC (racemic) [Example 8]
5.72

These entries and their values trace back to patent US9475784B2.
